test system: SA4 cell line; test: High throughput drug sensitivity and resistance test (CellTiter-Glo, 72 hours); format: cell-based; settings: drug combined with anagrelide hydrochloride (100 nM) minus drug alone, SA4
Below, each entry is listed with its recorded SA4 cell line: DSS(combo (anagrelide))-DSS(drug).
Just the number.

smiles-str | target-of-assay | reported-value
COc1ccc(-c2ccc3c(N4CCOC[C@@H]4C)nc(N4CCOC[C@@H]4C)nc3n2)cc1CO | SA4 cell line | 5.9
CN(C)C[C@@H]1CCn2cc(c3ccccc32)C2=C(C(=O)NC2=O)c2cn(c3ccccc23)CCO1 | SA4 cell line | 4.8

Lookup: Find the measured SA4 cell line: DSS(combo (anagrelide))-DSS(drug): item Cc1nc(Nc2n[nH]c3c2CN(C(=O)N[C@H](CN(C)C)c2ccccc2)C3(C)C)c2sccc2n1 , target or system SA4 cell line.
Found: 20.1
